experimentalSystem: T1, rat VPAC1 receptor (rat, UniProt P30083 31-459)
T1 sequence (looked up): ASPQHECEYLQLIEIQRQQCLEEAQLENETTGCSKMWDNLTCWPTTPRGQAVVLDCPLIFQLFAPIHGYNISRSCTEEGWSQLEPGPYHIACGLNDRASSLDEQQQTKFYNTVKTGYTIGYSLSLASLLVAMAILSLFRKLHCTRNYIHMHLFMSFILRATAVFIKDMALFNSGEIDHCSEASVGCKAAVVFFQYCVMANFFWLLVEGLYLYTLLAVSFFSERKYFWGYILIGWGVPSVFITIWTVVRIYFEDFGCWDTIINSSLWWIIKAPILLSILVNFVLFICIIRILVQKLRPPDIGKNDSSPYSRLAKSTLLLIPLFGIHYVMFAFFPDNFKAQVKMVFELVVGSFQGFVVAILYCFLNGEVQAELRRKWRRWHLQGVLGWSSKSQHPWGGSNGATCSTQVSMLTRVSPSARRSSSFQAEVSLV
assayNotes: cell-based or functional assay
reportedEndpoint: Rat VPAC1 Receptor: DiscoveRx: (EC50; nM)

- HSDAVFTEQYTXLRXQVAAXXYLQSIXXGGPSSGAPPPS (C6-HSDAVFTEQY(OMe)TOrnLRK(CO(CH2)2SPEG40K)QVAAAibOrnYLQSIOrnOrnGGPSSGAPPPS-NH2) [P485]: 735 nM
- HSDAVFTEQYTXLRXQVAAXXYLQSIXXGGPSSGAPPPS (not fully specified; C6-HSDAVFTEQY(OMe)TOrnLRK(WPEG40K)QVAAAibOrnYLQSIOrnOrnGGPSSGAPPPS-NH2) [P529]: 1180 nM
- HSDAVFTEQYTXLRXQVAAXCYLQSIXXGGPSSGAPPPS (C6-HSDAVFTEQY(OMe)TOrnLRAibQVAAAibC(PEG40K)YLQSIOrnOrnGGPSSGAPPPS-NH2) [P460]: > 1000 nM
- HSDAVFTEQYTXLRXQLXAXXYLQSIXXGGPSSGAPPPCC (C6-HSDAVFTEQY(OMe)TOrnLRAibQLAbuAAibOrnYLQSIOrnOrnGGPSSGAPPPC(PEG20K)C(PEG20K)-NH2) [P590]: 245 nM
- HSDAVFTEQYTXLRXQVAAXXYLQSIXCXGGPSSGAPPPC (C6-HSDAVFTEQY(OMe)TOrnLRAibQVAAAibOrnYLQSIOrnC(PEG20K)OrnGGPSSGAPPPC(PEG20K)-NH2) [P505]: 639 nM
- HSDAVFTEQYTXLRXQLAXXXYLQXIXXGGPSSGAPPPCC (C6-HSDAVFTEQY(OMe)TOrnLRAibQLAAbuAibOrnYLQAibIOrnOrnGGPSSGAPPPC(PEG20K)C(PEG20K)-NH2) [P517]: 92.4 nM
- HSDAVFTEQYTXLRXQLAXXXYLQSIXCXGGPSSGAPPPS (C6-HSDAVFTEQY(OMe)TOrnLRAibQLAAbuAibOrnYLQSIOrnC(PEG40K)OrnGGPSSGAPPPS-NH2) [P539]: 32.6 nM
- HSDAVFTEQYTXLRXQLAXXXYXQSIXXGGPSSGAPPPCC (C6-HSDAVFTEQY(OMe)TOrnLRAibQLAAbuAibOrnYAibQSIOrnOrnGGPSSGAPPPC(PEG20K)C(PEG20K)-NH2) [P521]: 602 nM
- HSDAVFTEQYTXLRXQLAXXXYLQSIXXCGGPSSGAPPPC (C6-HSDAVFTEQY(OMe)TOrnLRAibQLAAbuAibOrnYLQSIOrnOrnC(PEG20K)GGPSSGAPPPC(PEG20K)-NH2) [P572]: 94.5 nM
- HSDAVFTEQYTXLRXQLAXXXYLQSIXXGGPSSGAPPPCC (C6-HSDAVFTEQY(OMe)TOrnLRAibQLAAbuAibOrnYLQSIOrnOrnGGPSSGAPPPC(PEG20K)C(PEG20K)-NH2) [P523]: 20.4 nM
- HSDAVFTEQYTXLRXQLAXXXYLQSCXXGGPSSGAPPPS (C6-HSDAVFTEQY(OMe)TOrnLRAibQLAAbuAibOrnYLQSC(PEG40K)OrnOrnGGPSSGAPPPS-NH2) [P543]: 355 nM
- HSDAVFTEQYTXLRXQLAXXXYLQSIXXCGGPSSGAPPPS (C6-HSDAVFTEQY(OMe)TOrnLRAibQLAAbuAibOrnYLQSIOrnOrnC(PEG40K)GGPSSGAPPPS-NH2) [P566]: 52.7 nM
- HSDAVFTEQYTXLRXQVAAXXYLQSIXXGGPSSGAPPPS (C6-HSDAVFTEQY(OMe)TOrnLRAibQVAAAibK(CO(CH2)2SPEG20K)YLQSIOrnOrnGGPSSGAPPPS-NH2) [P473]: > 1000 nM
